# Test system: ATP;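 also: ATP exposure 15 min at 22 °C before imaging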
# ASSAY PROTOCOL: switch fluorescence ratio, 500 uM ATP over buffer (Cy3 cluster intensity, sum of 5 cycles each) (fold (ratio)); higher = stronger signal-on switching upon ATP binding; sequences stand for … in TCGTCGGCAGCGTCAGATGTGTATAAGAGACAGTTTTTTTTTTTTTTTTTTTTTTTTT…TC
# CONDITION DESCRIPTION: aptamer strand: ATP DNA aptamer (quencher-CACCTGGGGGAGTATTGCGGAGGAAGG + anchor), 100 nM annealed; ATP concentration: 500 uM
Give class 1 when the value for switch fluorescence ratio is at least 1. Give class 0 when it is less.

SEQUENCE CODE	CLASS NAME
AGGGGTGCGG	class 1

# evaluate next
// inclusive: switch fluorescence ratio at least 1? input: ATTTTGCTTT class 0
